- System: Echovirus 11
- EXPERIMENT_SUMMARY: microbe, parasite or virus in culture
- Format: cell-based
- ASSAY_CONTEXT: read-out: EC50 ECHO11
MEASUREMENT_LABEL: EC50 (nM)
Write down the numeric answer in nM and omit the unit.

1. CC(C)n1ncc2c(C(=O)Nc3cccnc3)cc(-c3cccs3)nc21 :: 200
2. CC(C)n1ncc2c(C(=O)Nc3ncccn3)cc(-c3cccs3)nc21 :: 600
3. CC(C)n1ncc2c(C(=O)Nc3ccccn3)cc(-c3ccsc3)nc21 :: 1200
4. CC(C)n1ncc2c(C(=O)Nc3ccccc3F)cc(-c3ccccc3)nc21 :: 2900
5. CC(C)n1ncc2c(C(=O)Nc3ccccc3F)cc(-c3ccncc3)nc21 :: 5300

Record `CC(C)n1ncc2c(C(=O)Nc3cccc(S(=O)(=O)N(C)C)c3)cc(-c3cccs3)nc21` . Reported EC50: 600

Record `CC(C)n1ncc2c(C(=O)Nc3ccccc3F)cc(-c3cccnc3)nc21` . Reported EC50: 4500

Record `CC(C)n1ncc2c(C(=O)Nc3ccc(F)cc3F)cc(-c3cccs3)nc21` . Reported EC50: 1400
